# Measured On: kinases (Homo sapiens, UniProt P10721, V559D)
# Construct: purchased Eurofins/DiscoveRx; host or cells: E. coli BL21-derived host (T7 phage display) for most kinases; HEK-293 for the rest
# Sequence (P10721 26-976 V559D): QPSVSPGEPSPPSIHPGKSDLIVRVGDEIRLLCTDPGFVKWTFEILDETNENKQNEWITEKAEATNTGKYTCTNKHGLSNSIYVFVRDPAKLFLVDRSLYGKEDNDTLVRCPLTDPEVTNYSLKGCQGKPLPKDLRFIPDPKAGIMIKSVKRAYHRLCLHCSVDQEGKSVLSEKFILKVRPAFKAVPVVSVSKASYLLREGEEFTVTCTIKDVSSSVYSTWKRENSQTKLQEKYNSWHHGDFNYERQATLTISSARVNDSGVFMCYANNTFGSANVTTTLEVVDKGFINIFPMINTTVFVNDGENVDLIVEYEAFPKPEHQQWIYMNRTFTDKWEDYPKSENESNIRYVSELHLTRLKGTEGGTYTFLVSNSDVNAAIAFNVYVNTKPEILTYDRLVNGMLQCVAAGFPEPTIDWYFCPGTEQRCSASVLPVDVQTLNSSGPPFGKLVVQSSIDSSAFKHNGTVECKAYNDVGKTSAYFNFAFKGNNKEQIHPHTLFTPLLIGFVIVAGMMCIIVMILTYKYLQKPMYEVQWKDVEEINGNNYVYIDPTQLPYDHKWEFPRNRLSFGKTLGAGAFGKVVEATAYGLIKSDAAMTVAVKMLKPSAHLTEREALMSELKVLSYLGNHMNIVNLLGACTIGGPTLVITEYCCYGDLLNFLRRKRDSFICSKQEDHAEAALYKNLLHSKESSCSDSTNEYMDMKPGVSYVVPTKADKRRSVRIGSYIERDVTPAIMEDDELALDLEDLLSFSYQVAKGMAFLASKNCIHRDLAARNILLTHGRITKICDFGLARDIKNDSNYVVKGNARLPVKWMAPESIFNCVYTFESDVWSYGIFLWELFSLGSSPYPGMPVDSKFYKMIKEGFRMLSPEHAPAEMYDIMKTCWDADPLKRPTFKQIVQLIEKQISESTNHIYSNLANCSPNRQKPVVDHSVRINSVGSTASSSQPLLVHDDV
# Run Description: KINOMEscan kinase binding assay (Eurofins/DiscoveRx), % Ctrl
# Condition Details: 1 μM; KIT(V559D)
Test Readout: % Ctrl, KIT(V559D) (% Ctrl)
The response must be a number in % Ctrl with no trailing unit.

Cc1cc2c([nH]1)/C=C1\C(=O)Nc3ccc(cc31)-c1ccnn1CCOCCN(C)C2=O [Ex. 41]: 64

Please examine the following record next.
Task item: Reported % Ctrl, KIT(V559D) for Cc1cc2c([nH]1)/C=C1\C(=O)Nc3ccc(cc31)-c1c(noc1C)COCCN(C)C2=O [Ex. 128] : what is it?
Reply: 93

----------
# Measured On: kinases (Homo sapiens, UniProt P10721, V559D/V654A)
# Construct: purchased Eurofins/DiscoveRx; host or cells: E. coli BL21-derived host (T7 phage display) for most kinases; HEK-293 for the rest
# Sequence (P10721 26-976 V559D/V654A): as the sequence (P10721 26-976 V559D) above, with V629A counted along it
# Run Description: KINOMEscan kinase binding assay (Eurofins/DiscoveRx), % Ctrl
# Condition Details: 1 μM; KIT(V559D, V654A)
Test Readout: % Ctrl, KIT(V559D, V654A) (% Ctrl)
Give the number; % Ctrl is assumed, so skip it.

Recorded results for 3 molecules are shown here.
Cc1cc2c([nH]1)/C=C1\C(=O)Nc3ccc(cc31)CN(C)C(=O)COCCNC2=O: 62
Cc1cc2c([nH]1)/C=C1\C(=O)Nc3ccc(nc31)-c1ccccc1OCCCNC2=O: 100
Cc1cc2c([nH]1)/C=C1\C(=O)Nc3cnc(nc31)N(C)CCCOCCN(C)C2=O: 100

Query molecule follows.
Task item: Can you look up the measured % Ctrl, KIT(V559D, V654A) of Cc1cc2c([nH]1)/C=C1\C(=O)Nc3ccc(cc31)-c1ccnn1CCOCCN(C)C2=O for me?
Reply: 93

----------
# Measured On: kinases (Homo sapiens, UniProt P00519, Q252H)
# Construct: purchased Eurofins/DiscoveRx; host or cells: E. coli BL21-derived host (T7 phage display) for most kinases; HEK-293 for the rest
# Run Description: KINOMEscan kinase binding assay (Eurofins/DiscoveRx), % Ctrl
# Condition Details: 1 μM; ABL1(Q252H)-phosphorylated
Mark y only for % Ctrl, ABL1(Q252H)-phosphorylated values smaller than 70 % Ctrl; exact matches and larger values are n.

Task item: Could you please tell me whether % Ctrl, ABL1(Q252H)-phosphorylated recorded for Cc1cc2c([nH]1)/C=C1\C(=O)Nc3ccc(cc31)OCCOCCN(C)C2=O is less than 70 % Ctrl?
Reply: y

Task item: Field: below-cutoff. Rule: recorded % Ctrl, ABL1(Q252H)-phosphorylated strictly less than 70 % Ctrl. Subject: Cc1cc2c([nH]1)/C=C1\C(=O)Nc3ccc(cc31)CN(C)C(=O)COCCNC2=O
Reply: y

Task item: Regarding Cc1cc2c([nH]1)/C=C1\C(=O)Nc3ccc(cc31)-c1ccnn1CCNCCNC2=O , kindly confirm whether its % Ctrl, ABL1(Q252H)-phosphorylated is beneath 70 % Ctrl.
Reply: n

Task item: Dear colleague, could you confirm whether % Ctrl, ABL1(Q252H)-phosphorylated of Cc1cc2c([nH]1)/C=C1\C(=O)Nc3ccc(cc31)-c1ccnn1CCOCCNC2=O falls below 70 % Ctrl? Thanks.
Reply: n

Task item: I'd appreciate it if you could check whether Cc1cc2c([nH]1)/C=C1\C(=O)Nc3ccc(nc31)-c1ccccc1OCCCNC2=O has % Ctrl, ABL1(Q252H)-phosphorylated smaller than 70 % Ctrl.
Reply: n

Task item: Quick check: % Ctrl, ABL1(Q252H)-phosphorylated of Cc1cc2c([nH]1)/C=C1\C(=O)Nc3ccc(cc31)-c1ccnn1CCOCCN(C)C2=O under 70 % Ctrl?
Reply: y

----------
# Measured On: kinases (Homo sapiens, UniProt P00533, G719C)
# Construct: purchased Eurofins/DiscoveRx; host or cells: E. coli BL21-derived host (T7 phage display) for most kinases; HEK-293 for the rest
# Run Description: KINOMEscan kinase binding assay (Eurofins/DiscoveRx), % Ctrl
# Condition Details: 1 μM; EGFR(G719C)
Test Readout: % Ctrl, EGFR(G719C) (% Ctrl)
The reply should contain only the number, in % Ctrl.

Recorded % Ctrl, EGFR(G719C), per entry:
Cc1cc2c([nH]1)/C=C1\C(=O)Nc3cc(Cl)c(cc31)OCCO[C@@H](C(=O)NC1CNC1)CN(C)C2=O: 92
Cc1cc2c([nH]1)/C=C1\C(=O)Nc3ccc(cc31)-c1ccnn1CCOCCNC2=O: 70
Cc1cc2c([nH]1)/C=C1\C(=O)Nc3cc(Cl)c(cc31)OCCO[C@@H](C(=O)N(C)C)CN(C)C2=O: 100

Task item: Could you tell me which % Ctrl, EGFR(G719C) is on file for Cc1cc2c([nH]1)/C=C1\C(=O)Nc3ccc(cc31)O[C@@H](C)COCCN(C)C2=O ?
Reply: 100

----------
# Measured On: kinases (Homo sapiens, UniProt P00519, F317I)
# Construct: purchased Eurofins/DiscoveRx; host or cells: E. coli BL21-derived host (T7 phage display) for most kinases; HEK-293 for the rest
# Run Description: KINOMEscan kinase binding assay (Eurofins/DiscoveRx), % Ctrl
# Condition Details: 1 μM; ABL1(F317I)-phosphorylated
Test Readout: % Ctrl, ABL1(F317I)-phosphorylated
Returns: string containing the numeric result and its unit.

Cc1cc2c([nH]1)/C=C1\C(=O)Nc3cc(Cl)c(cc31)OCCO[C@@H](C(=O)N[C@@H]1CCNC1)CN(C)C2=O: 66 % Ctrl
Cc1cc2c([nH]1)/C=C1\C(=O)Nc3ccc(cc31)OCCOCCNC2=O: 100 % Ctrl
Cc1cc2c([nH]1)/C=C1\C(=O)Nc3ccc(cc31)O[C@@H](C)COCCN(C)C2=O: 89 % Ctrl
Cc1cc2c([nH]1)/C=C1\C(=O)Nc3ccc(cc31)-c1c(noc1C)COCCN(C)C2=O: 55 % Ctrl
Cc1cc2c([nH]1)/C=C1\C(=O)Nc3ccc(cc31)-c1cnn(C)c1COCCN(C)C2=O: 1.5 % Ctrl

Task item: Enter reported % Ctrl, ABL1(F317I)-phosphorylated observed with kinases (Homo sapiens, UniProt P00519, F317I) for Cc1cc2c([nH]1)/C=C1\C(=O)Nc3cc(Cl)c(cc31)OCCO[C@@H](C(=O)NC1CNC1)CN(C)C2=O
Reply: 89 % Ctrl

Task item: Give the reported % Ctrl, ABL1(F317I)-phosphorylated for Cc1cc2c([nH]1)/C=C1\C(=O)Nc3cnc(cc31)-c1cnn(C)c1COCCNC2=O (system: kinases (Homo sapiens, UniProt P00519, F317I)).
Reply: 100 % Ctrl

----------
% Ctrl, FLT3 reference
# Measured On: kinases (Homo sapiens, UniProt P36888)
# Construct: purchased Eurofins/DiscoveRx; host or cells: E. coli BL21-derived host (T7 phage display) for most kinases; HEK-293 for the rest
# Sequence (P36888 27-993): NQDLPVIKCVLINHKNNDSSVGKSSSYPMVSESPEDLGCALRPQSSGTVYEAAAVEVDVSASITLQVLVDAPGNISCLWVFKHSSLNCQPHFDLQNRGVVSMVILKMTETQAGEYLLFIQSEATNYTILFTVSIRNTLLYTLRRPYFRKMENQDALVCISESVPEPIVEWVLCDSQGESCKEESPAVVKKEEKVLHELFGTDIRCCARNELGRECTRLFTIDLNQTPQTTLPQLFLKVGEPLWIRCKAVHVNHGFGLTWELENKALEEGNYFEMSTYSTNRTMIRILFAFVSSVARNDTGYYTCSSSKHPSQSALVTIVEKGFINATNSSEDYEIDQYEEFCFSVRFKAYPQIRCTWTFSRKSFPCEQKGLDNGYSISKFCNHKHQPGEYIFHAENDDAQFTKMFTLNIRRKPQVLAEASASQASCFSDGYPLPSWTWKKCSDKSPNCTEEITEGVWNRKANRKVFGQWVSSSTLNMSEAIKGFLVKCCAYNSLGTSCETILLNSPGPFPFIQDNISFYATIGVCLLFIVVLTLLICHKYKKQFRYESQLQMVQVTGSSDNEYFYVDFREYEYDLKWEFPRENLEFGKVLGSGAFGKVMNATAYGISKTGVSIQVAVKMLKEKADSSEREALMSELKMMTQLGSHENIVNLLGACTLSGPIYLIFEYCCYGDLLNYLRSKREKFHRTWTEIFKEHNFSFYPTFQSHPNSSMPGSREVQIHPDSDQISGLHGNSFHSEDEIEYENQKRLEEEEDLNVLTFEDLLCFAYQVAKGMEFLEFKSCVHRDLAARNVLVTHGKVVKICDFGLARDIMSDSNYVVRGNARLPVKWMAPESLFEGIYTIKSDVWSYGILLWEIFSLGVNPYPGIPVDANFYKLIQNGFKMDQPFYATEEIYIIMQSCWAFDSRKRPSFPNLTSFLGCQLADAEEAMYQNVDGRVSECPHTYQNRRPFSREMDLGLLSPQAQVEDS
# Run Description: KINOMEscan kinase binding assay (Eurofins/DiscoveRx), % Ctrl
# Condition Details: 1 μM; FLT3
Provide the reading as a plain figure in % Ctrl.

Cc1cc2c([nH]1)/C=C1\C(=O)Nc3cc(Cl)c(cc31)OCCO[C@@H](C(=O)NC1CCNCC1)CN(C)C2=O: 48
Cc1cc2c([nH]1)/C=C1\C(=O)Nc3ccc(cc31)-c1cnn(C)c1CNCCN(C)C2=O: 0.45

Turning now to a further record.
Task item: Query (molecule): Cc1cc2c([nH]1)/C=C1\C(=O)Nc3cc(Cl)c(cc31)OCCOCCN(C)C2=O ; field requested: % Ctrl, FLT3
Reply: 0.6

----------
Measured % Ctrl, KIT(A829P), listed per entry for reference.
# Measured On: kinases (Homo sapiens, UniProt P10721, A829P)
# Construct: purchased Eurofins/DiscoveRx; host or cells: E. coli BL21-derived host (T7 phage display) for most kinases; HEK-293 for the rest
# Sequence (P10721 26-976 A829P): as the sequence (P10721 26-976 V559D) above, with D534V, A804P counted along it
# Run Description: KINOMEscan kinase binding assay (Eurofins/DiscoveRx), % Ctrl
# Condition Details: 1 μM; KIT(A829P)
Give the number; % Ctrl is assumed, so skip it.

Task item: Dear colleague, I am looking for the recorded % Ctrl, KIT(A829P) of the following compound: Cc1cc2c([nH]1)/C=C1\C(=O)Nc3ccc(cc31)CN(C)C(=O)COCCNC2=O [Ex.111]
Reply: 100

Task item: Data request, read-out % Ctrl, KIT(A829P), for Cc1cc2c([nH]1)/C=C1\C(=O)Nc3cc(Cl)c(cc31)OCCO[C@@H](C(=O)NC1CNC1)CN(C)C2=O [Ex. 133]
Reply: 54

Task item: Which measured % Ctrl, KIT(A829P) value corresponds to Cc1cc2c([nH]1)/C=C1\C(=O)Nc3ccc(cc31)-c1cnn(C)c1CN(C)CCN(C)C2=O [Ex. 126] ?
Reply: 0

Task item: # input compound: Cc1cc2c([nH]1)/C=C1\C(=O)Nc3ccc(cc31)OCCOCCN(C)C2=O [Ex.91] ; wanted: its % Ctrl, KIT(A829P)
Reply: 32

Task item: Fill in the blank: the reported % Ctrl, KIT(A829P) of Cc1cc2c([nH]1)/C=C1\C(=O)Nc3ccc(nc31)-c1ccccc1OCCCNC2=O [Ex.22] is ____.
Reply: 100

Task item: Look up % Ctrl, KIT(A829P) for this compound: Cc1cc2c([nH]1)/C=C1\C(=O)Nc3cc(Cl)c(cc31)OCCOCCN(C)C2=O [Ex. 131]
Reply: 4

Task item: Query: % Ctrl, KIT(A829P); subject: Cc1cc2c([nH]1)/C=C1\C(=O)Nc3ccc(cc31)O[C@@H](C)COCCN(C)C2=O [Ex. 92]
Reply: 100

Task item: % Ctrl, KIT(A829P) lookup needed for Cc1cc2c([nH]1)/C=C1\C(=O)Nc3cnc(nc31)N(C)CCCOCCN(C)C2=O [Ex.71] , thanks.
Reply: 100

Task item: What does the record list as % Ctrl, KIT(A829P) for Cc1cc2c([nH]1)/C=C1\C(=O)Nc3ccc(cc31)-c1cnn(C)c1COCCN(C)C2=O [Ex. 124] ?
Reply: 4.3

Values compiled from patent US20230257396A1.
